Species on record: Homo sapiens
measurement-protocol: To identify inhibition of the IFN signalling (Jak-Stat) pathway via expression of an eGFP reporter gene under the control of an IFN-stimulated response element (ISRE) containing MxA promoter.
Assay type: functional
Parameters: scale not given: direction of the effect not stated beside the values
test-conditions: 30 µM
What Percent Effect was measured for each of the following?
Give the value; after it, write the unit.

>>> result_value("O=C1CCC2(CCN(c3ncc(F)cn3)CC2)N1CCN1CCCC1")
"12.5%"

For each listed entry, give its Percent Effect.
1. O=C1CC(c2ccc(F)c(F)c2)c2snc(C(=O)O)c2N1 (stereo not drawn)
2. O=C(N[C@@H]1CN(Cc2ccccc2)C[C@@H]2CCCO[C@@H]21)C1CC1
3. O=C(NCCc1ccccn1)NC1CCN(c2ncccn2)CC1
4. CN(CC(=O)N1CCCC1c1cnn(C)c1)c1ccc(Cl)cn1 (stereo not drawn)
5. O=C(O)C1(Cc2cc(-c3cccc(F)c3)no2)CCOCC1

Output:
-4.84%
-2.02%
-1.99%
6.79%
-7.88%

Go through the items and report each one's Percent Effect.
1. COc1ccc(S(=O)(=O)NCc2cccnc2N(C)C)cc1F
2. CCOCCCn1c(NC(=O)c2scnc2C)nc2ccccc21
3. COCCC(=O)N1CC[C@@H]2O[C@@H](C)C[C@H]2C1
4. CCn1ccnc1CN1CCN(C(C)C(=O)NC2CCCCC2)CC1 (stereo not drawn)
5. CCNC(=O)c1ccc2c(c1)nc1n2CCN(Cc2ccco2)C1

Output:
21.9%
68.6%
15.7%
24.7%
8.32%

Please give Percent Effect for each item listed below.
1. CCOCCC(=O)N1CCCC(c2ncc[nH]2)C1 (stereo not drawn)
2. Cc1ccc(N2CCCC(NCc3ccsc3)C2)nn1 (stereo not drawn)
3. CCN1CCC(CNC(=O)NCc2cc(-c3ccc(C)cc3)no2)C1 (stereo not drawn)
4. Cc1noc(C)c1CN1C[C@@H]2COC[C@H](C(=O)N3CCCCO3)[C@@H]2C1
5. COCCN1C(=O)CC(N2CCN(c3ccc(OC)cc3)CC2)C1=O (stereo not drawn)
6. CC(=O)N(Cc1ncc(C(C)C)o1)C1CCN(Cc2nccn2C)C1 (stereo not drawn)
7. CC(C)n1ncc2c1NC(=O)CC21C(=O)Nc2c(Cl)cc(Cl)cc21 (stereo not drawn)

Output:
11.3%
11%
5.69%
3.63%
-7.93%
-11.4%
13.3%

====

system: Tyrosyl-tRNA synthetase, putative (Trypanosoma cruzi (strain CL Brener))
measurement-protocol: Trypanosoma cruzi tyrosyl tRNA synthetase (TcYRS) _High Tyrosine SOP; note: in the data most compounds retested in dose-response had high values
Type: functional
Set-up: scale not given: direction of the effect not stated beside the values
test-conditions: 30 µM
value-kind: Percent Effect (%)
One number for each entry, in %.

Solved cases below.
>>> result_value("Cc1ccc(C#N)c(N2CCC(c3nccn3Cc3cscn3)CC2)n1")
4.92
>>> result_value("CC(C)N1Cc2c(C(=O)N3CCOCC3)nn(C)c2C1")
-1.08
>>> result_value("Cc1nnc(NC(=O)NCc2cc(F)cc(F)c2)s1")
4.43
>>> result_value("O=C(C1CCCc2[nH]ncc21)N1CCCCCC1 (centres undefined)")
2.15
>>> result_value("Cc1ccc(NC2CCN(C(=O)COc3cccnc3)CC2)nn1")
4.17

Need Percent Effect for each of these compounds.
1. COc1ccc(Br)c(C(=O)NCCNc2ccc(C(F)(F)F)cn2)c1
2. COc1cccc(-c2nc(C)c(C(=O)N[C@@H](C)C(=O)O)s2)c1
3. CC(=O)N1CCOC(c2cc(N3CC(O)C3)nc(C)n2)C1 (centres undefined)
4. Cc1cc(CN2CCC(CNC(=O)c3nccc4ccccc34)C2)[nH]n1 (centres undefined)
5. COCCN1C[C@@H]2CN(Cc3ccsc3)CCC[C@]2(C(=O)O)C1

Output:
1. 11.4
2. 9.52
3. 5.32
4. 11.8
5. 4.23

// each listed compound needs a value for Percent Effect
1. Cc1cc(C)n(CC2CCCN2C(=O)c2cccc3[nH]ncc23)n1 (centres undefined)
2. Cc1cnn(C2CCCN(C(=O)c3ccc(N(C)C)nn3)C2)c1 (centres undefined)

Output:
5.94
4.85
